experiment.description: Dose linearity and effect of feeding, PK in cats (Example 10)
Type: in vivo, cat
assay.conditions: both sexes, serum, po, 2 mg/kg, Group 2 fasted cats, single oral 2 mg/kg capsule, males and females; read-out: mean terminal half-life
quantity.measured: half-life

{"columns": ["smiles.repr", "recorded.measurement"],
 "data": [
  ["CCc1nc2c(C)nc(C)cc2n1-c1ccc(CCNC(=O)NS(=O)(=O)c2ccc(C)cc2)cc1", "1.47 to 2.16 h"]
]}

---

experiment.description: Crossover PK of tablet vs methylcellulose suspension in beagle dogs (Example 15)
Format: in vivo, beagle dog
assay.conditions: both sexes, beagle, dog, serum, po, 500 mg, beagle dogs, both sexes combined, Day 15, 500-mg suspension

{"columns": ["smiles.repr", "Cmax, µg/mL"],
 "data": [
  ["CCc1nc2c(C)nc(C)cc2n1-c1ccc(CCNC(=O)NS(=O)(=O)c2ccc(C)cc2)cc1", 74.2]
]}
